The measured values listed here are drawn from ChEMBL document CHEMBL4393657.

Reported values of MIC for individual entries
system: Candida parapsilosis; assay: Antifungal activity against Candida parapsilosis ATCC 22019 assessed as reduction in fungal cell growth incubated for 48 hrs by broth microdilution method; format: functional; settings: Lodderomyces parapsilosis, ATCC 22019, 48 h
Measurement label: MIC

* CCCCOc1ccccc1N1CCN(CCc2nnn(C(C)C(O)(Cn3cncn3)c3ccc(F)cc3F)n2)CC1 (stereo not drawn) | 1 to 16 µg/mL
* CC(n1nnnc1CCN1CCN(c2ccccc2Cl)CC1)C(O)(Cn1cncn1)c1ccc(F)cc1F (stereo not drawn) | 0.5 to 16 µg/mL
* C[C@H](n1nnnc1CCN1CCN(C(c2ccccc2)c2ccccc2)CC1)[C@](O)(Cn1cncn1)c1ccc(F)cc1F | 0.12 to 16 µg/mL
* CC(n1nnc(CCN2CCN(c3ccccc3)CC2)n1)C(O)(Cn1cncn1)c1ccc(F)cc1F (stereo not drawn) | 1 to 16 µg/mL
* COc1ccc(N2CCN(CCc3nnnn3C(C)C(O)(Cn3cncn3)c3ccc(F)cc3F)CC2)cc1 (stereo not drawn) | 0.5 to 16 µg/mL
* OC(Cn1cncn1)(Cn1nnnc1CCN1CCN(C(c2ccccc2)c2ccccc2)CC1)c1ccc(F)cc1F (stereo not drawn) | 0.5 to 16 µg/mL
* CC(n1nnc(CCN2CCN(c3ccc(Cl)cc3)CC2)n1)C(O)(Cn1cncn1)c1ccc(F)cc1F (stereo not drawn) | 1 to 16 µg/mL
* COc1ccccc1N1CCN(CCc2nnn([C@@H](C)[C@](O)(Cn3cncn3)c3ccc(F)cc3F)n2)CC1 | 0.25 to 16 µg/mL
